target: Hypoxia-inducible factor 1-alpha (Homo sapiens); assay: Inhibition of hypoxia-induced HIF1alpha transcriptional activity in human Hep3B cells after 24 hrs in hypoxic condition by HRE-dependent dual luciferase reporter gene assay
Sequence (Q16665 whole entry): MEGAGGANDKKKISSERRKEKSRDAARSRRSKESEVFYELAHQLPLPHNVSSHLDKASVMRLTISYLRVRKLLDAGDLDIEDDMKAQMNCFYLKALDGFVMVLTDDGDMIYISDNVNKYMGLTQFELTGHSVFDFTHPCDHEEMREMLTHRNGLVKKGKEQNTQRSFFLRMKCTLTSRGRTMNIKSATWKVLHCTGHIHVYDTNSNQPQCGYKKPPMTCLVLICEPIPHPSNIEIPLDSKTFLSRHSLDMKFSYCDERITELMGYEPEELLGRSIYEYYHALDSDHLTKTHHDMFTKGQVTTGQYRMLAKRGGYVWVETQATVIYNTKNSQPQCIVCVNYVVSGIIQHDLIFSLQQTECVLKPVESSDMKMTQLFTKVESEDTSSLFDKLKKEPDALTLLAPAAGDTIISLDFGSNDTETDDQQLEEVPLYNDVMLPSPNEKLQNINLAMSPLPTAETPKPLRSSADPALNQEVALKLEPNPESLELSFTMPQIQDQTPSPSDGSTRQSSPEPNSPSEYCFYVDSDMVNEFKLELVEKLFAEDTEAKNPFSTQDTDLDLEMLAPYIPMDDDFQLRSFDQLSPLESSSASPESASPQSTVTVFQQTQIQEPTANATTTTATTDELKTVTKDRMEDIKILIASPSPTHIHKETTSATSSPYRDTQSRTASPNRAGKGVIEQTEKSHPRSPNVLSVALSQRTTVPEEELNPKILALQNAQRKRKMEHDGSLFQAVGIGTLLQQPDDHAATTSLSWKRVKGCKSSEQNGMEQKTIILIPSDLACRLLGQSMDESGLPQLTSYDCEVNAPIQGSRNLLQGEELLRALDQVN
For each entry below, report its IC50 value.
Hi! Could you send only the number? It should be in µM, unit omitted.

Q) Assign IC50 to the following record: C[C@H]1[C@H](C)CC[C@]2(C(=O)Nc3nnn[nH]3)CC[C@]3(C)C(=CC[C@@H]4[C@@]5(C)CC[C@H](OC(=O)c6ccccc6)C(C)(C)[C@@H]5CC[C@]43C)[C@H]12
A) 0.8

Q) Assign IC50 to the following record: C[C@H]1[C@H](C)CC[C@]2(C(=O)OCCNc3cccc(-c4nnn[nH]4)c3)CC[C@]3(C)C(=CC[C@@H]4[C@@]5(C)CC[C@H](O)C(C)(C)[C@@H]5CC[C@]43C)[C@H]12
A) 8.9

Q) Assign IC50 to the following record: C[C@H]1[C@H](C)CC[C@]2(C(=O)OCCCNc3cccc(-c4nnn[nH]4)c3)CC[C@]3(C)C(=CC[C@@H]4[C@@]5(C)CC[C@H](O)C(C)(C)[C@@H]5CC[C@]43C)[C@H]12
A) 13.2

Q) Assign IC50 to the following record: C[C@H]1[C@H](C)CC[C@]2(C(=O)OCCNc3ccc(-c4nnn[nH]4)cc3)CC[C@]3(C)C(=CC[C@@H]4[C@@]5(C)CCC(=O)C(C)(C)[C@@H]5CC[C@]43C)[C@H]12
A) 18.1

====

test system: Hep 3B2; test: Cytotoxicity against human Hep3B cells assessed as reduction in cell viability after 24 hrs by MTT assay; assay type: cell-based
For each entry below, report its IC50 value.

Q) Please report the measured IC50 for C[C@H]1[C@H](C)CC[C@]2(C(=O)OCCNc3nnn[nH]3)CC[C@]3(C)C(=CC[C@@H]4[C@@]5(C)CC[C@H](O)C(C)(C)[C@@H]5CC[C@]43C)[C@H]12 tested on Hep 3B2.
A) > 100 µM

Q) Please report the measured IC50 for C[C@H]1[C@H](C)CC[C@]2(C(=O)OCCCn3nnnc3-c3ccc4c(c3)OCO4)CC[C@]3(C)C(=CC[C@@H]4[C@@]5(C)CC[C@H](O)C(C)(C)[C@@H]5CC[C@]43C)[C@H]12 tested on Hep 3B2.
A) > 100 µM

Q) Please report the measured IC50 for C[C@H]1[C@H](C)CC[C@]2(C(=O)O)CC[C@]3(C)C(=CC[C@@H]4[C@@]5(C)CC(=C\c6ccc(Cl)cc6)/C(=N\NC(=N)N)C(C)(C)[C@@H]5CC[C@]43C)[C@H]12 tested on Hep 3B2.
A) > 100 µM

Q) Please report the measured IC50 for C[C@H]1[C@H](C)CC[C@]2(C(=O)Nc3nnn[nH]3)CC[C@]3(C)C(=CC[C@@H]4[C@@]5(C)CC[C@H](OC(=O)C(F)(F)F)C(C)(C)[C@@H]5CC[C@]43C)[C@H]12 tested on Hep 3B2.
A) 6.4 µM

Q) Please report the measured IC50 for C[C@H]1[C@H](C)CC[C@]2(C(=O)OCCNc3ccccc3-c3nnn[nH]3)CC[C@]3(C)C(=CC[C@@H]4[C@@]5(C)CCC(=O)C(C)(C)[C@@H]5CC[C@]43C)[C@H]12 tested on Hep 3B2.
A) > 100 µM

Q) Please report the measured IC50 for C[C@H]1[C@H](C)CC[C@]2(C(=O)OCCCn3nnnc3-c3ccccc3)CC[C@]3(C)C(=CC[C@@H]4[C@@]5(C)CC[C@H](O)C(C)(C)[C@@H]5CC[C@]43C)[C@H]12 tested on Hep 3B2.
A) > 100 µM

Q) Please report the measured IC50 for CC(=O)O[C@H]1CC[C@]2(C)[C@H]3CC=C4[C@@H]5[C@@H](C)[C@H](C)CC[C@]5(C(=O)Nc5nnn[nH]5)CC[C@@]4(C)[C@]3(C)CC[C@H]2C1(C)C tested on Hep 3B2.
A) > 100 µM

Q) Please report the measured IC50 for C[C@H]1[C@H](C)CC[C@]2(C(=O)Nc3nnn[nH]3)CC[C@]3(C)C(=CC[C@@H]4[C@@]5(C)CCC(=O)C(C)(C)[C@@H]5CC[C@]43C)[C@H]12 tested on Hep 3B2.
A) > 100 µM

Q) Please report the measured IC50 for C[C@H]1[C@H](C)CC[C@]2(C(=O)OCCn3nnnc3-c3ccccc3)CC[C@]3(C)C(=CC[C@@H]4[C@@]5(C)CC[C@H](O)C(C)(C)[C@@H]5CC[C@]43C)[C@H]12 tested on Hep 3B2.
A) > 100 µM

Q) Please report the measured IC50 for C[C@H]1[C@H](C)CC[C@]2(C(=O)OCCCn3nnnc3-c3ccc(Cl)cc3)CC[C@]3(C)C(=CC[C@@H]4[C@@]5(C)CC[C@H](O)C(C)(C)[C@@H]5CC[C@]43C)[C@H]12 tested on Hep 3B2.
A) > 100 µM

Q) Please report the measured IC50 for C[C@H]1[C@H](C)CC[C@]2(C(=O)OCCn3nnnc3-c3ccc(Cl)cc3)CC[C@]3(C)C(=CC[C@@H]4[C@@]5(C)CC[C@H](O)C(C)(C)[C@@H]5CC[C@]43C)[C@H]12 tested on Hep 3B2.
A) > 100 µM

Q) Please report the measured IC50 for C[C@H]1[C@H](C)CC[C@]2(C(=O)Nc3nnn[nH]3)CC[C@]3(C)C(=CC[C@@H]4[C@@]5(C)CC[C@H](OC(=O)c6ccccc6)C(C)(C)[C@@H]5CC[C@]43C)[C@H]12 tested on Hep 3B2.
A) 18.5 µM

Q) Please report the measured IC50 for CCCC(=O)O[C@H]1CC[C@]2(C)[C@H]3CC=C4[C@@H]5[C@@H](C)[C@H](C)CC[C@]5(C(=O)Nc5nnn[nH]5)CC[C@@]4(C)[C@]3(C)CC[C@H]2C1(C)C tested on Hep 3B2.
A) 4.7 µM

Q) Please report the measured IC50 for C[C@H]1[C@H](C)CC[C@]2(C(=O)OCCNc3ccc(-c4nnn[nH]4)cc3)CC[C@]3(C)C(=CC[C@@H]4[C@@]5(C)CCC(=O)C(C)(C)[C@@H]5CC[C@]43C)[C@H]12 tested on Hep 3B2.
A) > 100 µM

Q) Please report the measured IC50 for C[C@H]1[C@H](C)CC[C@]2(C(=O)OCCNc3ccccc3-c3nnn[nH]3)CC[C@]3(C)C(=CC[C@@H]4[C@@]5(C)CC[C@H](O)C(C)(C)[C@@H]5CC[C@]43C)[C@H]12 tested on Hep 3B2.
A) > 100 µM

Q) Please report the measured IC50 for C[C@H]1[C@H](C)CC[C@]2(C(=O)OCn3ncn(-c4ccccc4)c3=O)CC[C@]3(C)C(=CC[C@@H]4[C@@]5(C)CC[C@H](O)C(C)(C)[C@@H]5CC[C@]43C)[C@H]12 tested on Hep 3B2.
A) > 100 µM

Q) Please report the measured IC50 for C[C@H]1[C@H](C)CC[C@]2(C(=O)Nc3nnn[nH]3)CC[C@]3(C)C(=CC[C@@H]4[C@@]5(C)CC[C@H](O)C(C)(C)[C@@H]5CC[C@]43C)[C@H]12 tested on Hep 3B2.
A) > 100 µM

Q) Please report the measured IC50 for C[C@H]1[C@H](C)CC[C@]2(C(=O)OCCCNc3cccc(-c4nnn[nH]4)c3)CC[C@]3(C)C(=CC[C@@H]4[C@@]5(C)CCC(=O)C(C)(C)[C@@H]5CC[C@]43C)[C@H]12 tested on Hep 3B2.
A) > 100 µM

Q) Please report the measured IC50 for C[C@H]1[C@H](C)CC[C@]2(C(=O)OCCn3nnnc3-c3ccc4c(c3)OCO4)CC[C@]3(C)C(=CC[C@@H]4[C@@]5(C)CC[C@H](O)C(C)(C)[C@@H]5CC[C@]43C)[C@H]12 tested on Hep 3B2.
A) > 100 µM

====

For each entry below, report its IC50 value.
system: Hep 3B2; experiment: Cytotoxicity against human Hep3B cells assessed as reduction in cell viability after 24 hrs by MTT assay; type: cell-based

Q) Assign IC50 to the following record: C[C@H]1[C@H](C)CC[C@]2(C(=O)OCCCNc3ccc(-c4nnn[nH]4)cc3)CC[C@]3(C)C(=CC[C@@H]4[C@@]5(C)CC[C@H](O)C(C)(C)[C@@H]5CC[C@]43C)[C@H]12
A) > 100 µM

Q) Assign IC50 to the following record: C[C@H]1[C@H](C)CC[C@]2(C(=O)OCCNc3nnn[nH]3)CC[C@]3(C)C(=CC[C@@H]4[C@@]5(C)CCC(=O)C(C)(C)[C@@H]5CC[C@]43C)[C@H]12
A) > 100 µM

Q) Assign IC50 to the following record: C[C@H]1[C@H](C)CC[C@]2(C(=O)OCCNc3cccc(-c4nnn[nH]4)c3)CC[C@]3(C)C(=CC[C@@H]4[C@@]5(C)CC[C@H](O)C(C)(C)[C@@H]5CC[C@]43C)[C@H]12
A) > 100 µM

Q) Assign IC50 to the following record: C[C@H]1[C@H](C)CC[C@]2(C(=O)Nc3nnn[nH]3)CC[C@]3(C)C(=CC[C@@H]4[C@@]5(C)CC/C(=N\Nc6ccccc6)C(C)(C)[C@@H]5CC[C@]43C)[C@H]12
A) 11.9 µM

Values compiled from ChEMBL document CHEMBL4392861.
